Where do these numbers come from? They come from patent US20200024330A1.

# STUDY_SYSTEM: HIV-1 JR-CSF Env T413A (HIV-1 (isolate JR-CSF)) (UniProt P20871)
# PROTOCOL: cell-based or functional assay
MEASURE_NAME: Fold IC50 increase relative to wild-type (fold)

{"BINDER": "PGT-126 (antibody, V domains shown) VH: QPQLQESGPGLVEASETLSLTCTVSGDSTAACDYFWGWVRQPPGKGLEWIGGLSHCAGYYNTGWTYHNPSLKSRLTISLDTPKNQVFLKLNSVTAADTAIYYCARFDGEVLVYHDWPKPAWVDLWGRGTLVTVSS VL: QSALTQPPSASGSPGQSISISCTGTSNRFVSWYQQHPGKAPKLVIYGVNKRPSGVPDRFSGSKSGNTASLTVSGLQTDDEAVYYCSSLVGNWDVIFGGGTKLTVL", "UNITS_OF_MEASURE": "fold", "OBSERVED_MEASUREMENT": 0.7}
{"BINDER": "PGT-128 (antibody, V domains shown) VH: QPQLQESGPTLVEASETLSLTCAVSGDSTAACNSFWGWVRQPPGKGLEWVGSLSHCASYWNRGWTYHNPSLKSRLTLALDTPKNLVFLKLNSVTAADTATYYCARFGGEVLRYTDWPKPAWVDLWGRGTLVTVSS VL: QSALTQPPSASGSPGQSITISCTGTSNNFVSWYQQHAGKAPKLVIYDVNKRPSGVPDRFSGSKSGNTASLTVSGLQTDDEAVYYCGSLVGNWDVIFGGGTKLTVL", "UNITS_OF_MEASURE": "fold", "OBSERVED_MEASUREMENT": 1}
{"BINDER": "PGT-127 (antibody, V domains shown) VH: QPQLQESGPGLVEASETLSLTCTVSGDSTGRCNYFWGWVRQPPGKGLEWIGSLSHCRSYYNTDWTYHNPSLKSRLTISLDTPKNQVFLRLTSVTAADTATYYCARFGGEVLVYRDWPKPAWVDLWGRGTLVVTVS VL: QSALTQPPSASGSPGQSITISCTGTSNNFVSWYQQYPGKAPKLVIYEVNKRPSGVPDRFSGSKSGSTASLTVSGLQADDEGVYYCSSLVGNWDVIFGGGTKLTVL", "UNITS_OF_MEASURE": "fold", "OBSERVED_MEASUREMENT": 0.8}
{"BINDER": "PGT-125 (antibody, V domains shown) VH: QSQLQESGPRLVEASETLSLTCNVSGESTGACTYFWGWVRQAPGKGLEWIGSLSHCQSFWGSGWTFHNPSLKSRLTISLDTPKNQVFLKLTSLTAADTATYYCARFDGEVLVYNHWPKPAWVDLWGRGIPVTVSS VL: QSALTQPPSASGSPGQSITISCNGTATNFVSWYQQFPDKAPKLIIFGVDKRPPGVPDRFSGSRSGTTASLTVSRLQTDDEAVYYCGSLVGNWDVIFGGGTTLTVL", "UNITS_OF_MEASURE": "fold", "OBSERVED_MEASUREMENT": 0.5}
{"BINDER": "PGT-123 (antibody, V domains shown) VH: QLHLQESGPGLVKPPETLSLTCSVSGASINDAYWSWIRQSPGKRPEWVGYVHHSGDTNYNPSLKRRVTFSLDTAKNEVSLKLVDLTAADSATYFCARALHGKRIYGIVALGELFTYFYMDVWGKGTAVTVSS VL: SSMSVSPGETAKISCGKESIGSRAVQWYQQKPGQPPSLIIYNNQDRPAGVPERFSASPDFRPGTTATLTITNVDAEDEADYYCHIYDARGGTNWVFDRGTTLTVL", "UNITS_OF_MEASURE": "fold", "OBSERVED_MEASUREMENT": 0.4}
